# Tested on: CYP450
# Assay Name: in vitro
# Type: in vitro ADME, human
# Cond: human, pH 7.4, Km DZN to DZO, human liver microsomes
Readout Label: Km (µM)
Provide the reading as a plain figure in µM.

In: Param item = "CCOP(=S)(OCC)Oc1cc(C)nc(C(C)C)n1" ; retrieve measured Km.
Out: 59.6

====

# Assay System: recombinant human AChE (rhAChE) (Homo sapiens, UniProt P22303)
# Sequence (P22303 32-614): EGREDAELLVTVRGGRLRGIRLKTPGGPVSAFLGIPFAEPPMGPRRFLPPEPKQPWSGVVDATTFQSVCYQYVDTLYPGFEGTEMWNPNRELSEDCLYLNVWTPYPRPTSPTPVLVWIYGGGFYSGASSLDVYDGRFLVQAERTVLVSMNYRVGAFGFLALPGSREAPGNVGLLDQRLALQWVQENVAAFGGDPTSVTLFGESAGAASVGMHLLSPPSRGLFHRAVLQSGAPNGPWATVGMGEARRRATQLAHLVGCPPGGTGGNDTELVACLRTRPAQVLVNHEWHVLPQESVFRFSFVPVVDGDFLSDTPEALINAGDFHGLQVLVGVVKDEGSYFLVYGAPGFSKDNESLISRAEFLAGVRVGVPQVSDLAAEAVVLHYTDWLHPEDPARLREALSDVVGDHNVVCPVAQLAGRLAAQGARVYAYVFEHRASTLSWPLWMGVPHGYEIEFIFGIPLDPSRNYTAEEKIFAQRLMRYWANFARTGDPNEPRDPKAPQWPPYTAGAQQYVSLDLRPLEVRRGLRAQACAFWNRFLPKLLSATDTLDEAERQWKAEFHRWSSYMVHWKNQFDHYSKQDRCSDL
# Assay Name: biochemical
# Cond: rhAChE, 15 min incubation at 37℃; read-out: IC50 for inhibition of AChE activity
Readout Label: IC50
Your answer should be a number followed by the unit of measure.

CCOP(=O)(OCC)Oc1cc(C)nc(C(C)C)n1    0.044 µM

Now turn to the next molecule.
In: Param item = "CCOP(=S)(OCC)Oc1cc(C)nc(C(C)C)n1" ; retrieve measured IC50.
Out: 14.3 µM

====

# Assay System: UniProt:P55159
# Sequence (P55159 whole entry): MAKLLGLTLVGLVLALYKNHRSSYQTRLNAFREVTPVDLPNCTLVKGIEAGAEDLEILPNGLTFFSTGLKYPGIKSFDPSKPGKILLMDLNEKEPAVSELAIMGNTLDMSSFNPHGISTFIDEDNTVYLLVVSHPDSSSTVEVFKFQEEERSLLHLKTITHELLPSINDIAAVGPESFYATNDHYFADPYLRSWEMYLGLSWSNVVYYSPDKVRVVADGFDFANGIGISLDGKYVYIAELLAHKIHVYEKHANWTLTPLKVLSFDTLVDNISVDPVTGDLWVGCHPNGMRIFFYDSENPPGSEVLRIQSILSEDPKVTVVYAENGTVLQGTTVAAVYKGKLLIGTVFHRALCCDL
# Assay Name: in vitro
# Type: in vitro ADME
# Parameters: 1 µl of human or rat liver microsomes (final concentration 0.1 mg microsomal protein/ml); tissue Corning; host or cells: rat liver microsomes (Sprague–Dawley, male)
# Cond: pH 7.4; rat liver microsomes
Readout Label: Km (µM)
Provide the reading as a plain figure in µM.

In: Param item = "CCOP(=O)(OCC)Oc1cc(C)nc(C(C)C)n1" ; retrieve measured Km.
Out: 668

====

# Tested on: CYP450
# Assay Name: in vitro
# Type: in vitro ADME, rat
# Cond: rat, pH 7.4, Km DZN to DZO, rat liver microsomes
Readout Label: Km (µM)
Provide the reading as a plain figure in µM.

In: Param item = "CCOP(=S)(OCC)Oc1cc(C)nc(C(C)C)n1" ; retrieve measured Km.
Out: 4.75

====

# Tested on: CYP450
# Assay Name: in vitro
# Assay type: in vitro ADME, human
# Cond: human, pH 7.4, human liver microsomes; read-out: Km DZN to IMHP
Readout Label: Km (µM)
Provide the reading as a plain figure in µM.

In: Param item = "CCOP(=S)(OCC)Oc1cc(C)nc(C(C)C)n1" ; retrieve measured Km.
Out: 16.3

====

# System: CYP450
# Assay Name: in vitro
# Type: in vitro ADME, rat
# Cond: rat, pH 7.4, rat liver microsomes; read-out: Km DZN to IMHP
Readout Label: Km (µM)
Provide the reading as a plain figure in µM.

In: Param item = CCOP(=S)(OCC)Oc1cc(C)nc(C(C)C)n1 [DZN] ; retrieve measured Km.
Out: 1.76

====

# Assay System: rat RBC AChE (Rattus norvegicus, UniProt P37136)
# Construct: the membrane fraction (containing AChE) was sedimented by centrifugation at 20,000g for 40 min; tissue BioIVT
# Sequence (P37136 other isoform, or with tags, fused parts or gaps): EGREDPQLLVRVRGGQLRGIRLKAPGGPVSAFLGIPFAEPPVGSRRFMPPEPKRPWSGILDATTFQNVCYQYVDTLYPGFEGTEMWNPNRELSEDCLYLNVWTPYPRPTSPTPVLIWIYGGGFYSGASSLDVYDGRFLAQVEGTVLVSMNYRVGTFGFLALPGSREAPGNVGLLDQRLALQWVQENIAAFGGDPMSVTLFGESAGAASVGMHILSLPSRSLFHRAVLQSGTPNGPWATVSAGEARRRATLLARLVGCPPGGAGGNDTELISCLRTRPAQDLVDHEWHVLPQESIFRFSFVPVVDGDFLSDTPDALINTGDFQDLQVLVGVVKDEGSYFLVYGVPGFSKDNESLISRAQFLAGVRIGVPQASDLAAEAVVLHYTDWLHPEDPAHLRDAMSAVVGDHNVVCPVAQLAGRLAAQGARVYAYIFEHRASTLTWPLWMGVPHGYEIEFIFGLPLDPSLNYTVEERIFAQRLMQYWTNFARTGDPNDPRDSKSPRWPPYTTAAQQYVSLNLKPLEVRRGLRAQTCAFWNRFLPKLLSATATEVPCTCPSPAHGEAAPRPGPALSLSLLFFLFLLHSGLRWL
# Assay Name: In vitro AChE inhibition assay (Ellman) with extracted rat RBC AChE
# Cond: rat RBC AChE, 15 min incubation at 37℃
Readout Label: IC50 (µM)
Provide the reading as a plain figure in µM.

In: Param item = "CCOP(=S)(OCC)Oc1cc(C)nc(C(C)C)n1" ; retrieve measured IC50.
Out: 14.7

Where these numbers come from: paper PMC8113213
